# Tested on: SJRH30;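 note: growth inhibition of human SJRH30 cells, read out with a cell viability assay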
# test_name: cells
# Assay type: functional, cell-based
# test_parameters: Homo sapiens
# Description: SANGER: Inhibition of human SJRH30 cell growth in a cell viability assay.
Recorded IC50, one value per entry.
parameter_measured: IC50 (µM)

{"molecule": "C[C@]12O[C@H](C[C@]1(O)CO)n1c3ccccc3c3c4c(c5c6ccccc6n2c5c31)CNC4=O [LESTAURTINIB]", "assayed_system": "SJRH30", "parameter_measured": "IC50", "reported_relation": "=", "assay_result": 1.89}
{"molecule": "Cn1cc(/C=C2\\C(=O)Nc3cccnc32)c2ccccc21", "assayed_system": "SJRH30", "parameter_measured": "IC50", "reported_relation": ">", "assay_result": 2}
{"molecule": "Cn1c(=O)n(-c2ccc(C(C)(C)C#N)cc2)c2c3cc(-c4cnc5ccccc5c4)ccc3ncc21 [DACTOLISIB]", "assayed_system": "SJRH30", "parameter_measured": "IC50", "reported_relation": "=", "assay_result": 0.144}
{"molecule": "O=c1[nH]c2ccccc2n1C1CCN(Cc2ccc(-c3nc4cc5[nH]cnc5cc4nc3-c3ccccc3)cc2)CC1", "assayed_system": "SJRH30", "parameter_measured": "IC50", "reported_relation": ">", "assay_result": 2.56}
